# Target or test system: T1, C-terminally His-tagged hEphA2-FN2 (Thr437-Asn534+His tag) (human, UniProt P29317 437-534)
# T1 construct: SPR analyte; also called FN2 domain of hEphA2
# T1 sequence (P29317 437-534 limits assumed): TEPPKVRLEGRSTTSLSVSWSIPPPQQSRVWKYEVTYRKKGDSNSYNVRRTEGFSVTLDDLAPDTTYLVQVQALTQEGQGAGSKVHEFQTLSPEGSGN
# Experimental details: SPR Biacore T200, 25 C, mIgG2a captured by anti-mouse Fc, FN2-His as analyte, steady-state fit, monovalent
# Kd values compiled below
Reported metric: Kd

binder="AB-010363 (antibody, V domains shown, Tested in mIgG2a format) VH: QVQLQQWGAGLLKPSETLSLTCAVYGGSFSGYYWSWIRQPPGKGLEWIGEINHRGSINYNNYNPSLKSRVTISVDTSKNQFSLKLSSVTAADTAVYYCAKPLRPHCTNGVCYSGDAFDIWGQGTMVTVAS VL: SYVLTQPPSVSVAPGQTARITCGGNNIGSKNVHWYQQKPGQAPVLVVYDDSDRPSGIPERFSGSNSGNTATLTISRVEAGDEADYYCQVWDSSSDHVVFGGGTKLTVL" reading="1310 nM"
binder="AB-008873 (mouse IgG2a format) (antibody, V domains shown) VH: QVQLQQWGAGLLKPSETLSLTCAVYGGSFSDYYWSWIRQPPGKGLEWIGEVNHRGSINYNNYNPSLKSRVTISVDPSKNQFSLKLTSVTAADTAVYYCAKPLRPHCTNGVCYSGDAFDIWGQGTMVTVAS VL: SYVLTQPPSVSVAPGQTARITCGGNNIGSKNVHWYQQKPGQAPVLVVYDDSDRPSGIPEQFSGSNSGNTATLTISRVEAGDEADYYCQVWDSSSDHLVFGGGTKLTVLG" reading="2260 nM"
binder="AB-010361 (antibody, mouse IgG2a, V domains shown, Tested with mouse IgG2a constant regions (mIgG2a format)) VH: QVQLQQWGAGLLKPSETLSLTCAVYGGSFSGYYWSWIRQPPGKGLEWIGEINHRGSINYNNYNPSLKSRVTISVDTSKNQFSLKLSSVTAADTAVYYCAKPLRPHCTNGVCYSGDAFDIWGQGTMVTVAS VL: SYVLTQPPSVSVAPGQTARITCGGNNIGSKNVHWYQQKPGQAPVLVVYDDSDRPSGIPEQFSGSNSGNTATLTISRVEAGDEADYYCQVWDSSSDHVVFGGGTKLTVL" reading="1110 nM"
